Test: folding enthalpy; higher = less favourable; fluorescence melt of hairpins on a sequencing array, two-state fit
Settings: sodium 0.088 M
Overview of reported folding enthalpy across a group of sequences:
readoutType: folding enthalpy

[[record]]
sequencetext = "GCGATTTTTCGC ((((....))))"
valueobserved = "-27.2 kcal/mol"

[[record]]
sequencetext = "CGATAACGGAAACGTTCG (((..(((....))))))"
valueobserved = "-16.1 kcal/mol"

[[record]]
sequencetext = "GCACGGCCGAAAGGCTGC (((..(((....))))))"
valueobserved = "-10 kcal/mol"

[[record]]
sequencetext = "GATCGACGTCTCGATC ((((((....))))))"
valueobserved = "-42.3 kcal/mol"

[[record]]
sequencetext = "GATCAGGAGTCTGATC ((((((....))))))"
valueobserved = "-38.7 kcal/mol"

[[record]]
sequencetext = "GTTCGCGAAAGCGGTAAC ((((((....)))..)))"
valueobserved = "-11 kcal/mol"

[[record]]
sequencetext = "GATCCACCTTTGGATC ((((((....))))))"
valueobserved = "-34.9 kcal/mol"

[[record]]
sequencetext = "GCCGTCGAAAGACAGGC ((((((....))).)))"
valueobserved = "-27 kcal/mol"

[[record]]
sequencetext = "CGCGGACAGCTCCGCG ((((((....))))))"
valueobserved = "-30.1 kcal/mol"

[[record]]
sequencetext = "GATCAGGACGCTGATC ((((((....))))))"
valueobserved = "-41.7 kcal/mol"

[[record]]
sequencetext = "GAGGACGAAAGTCCGCTC ((((((....)))..)))"
valueobserved = "-12.1 kcal/mol"

[[record]]
sequencetext = "GCAAACGAAAGTTATGC ((((((....))).)))"
valueobserved = "-24.3 kcal/mol"

[[record]]
sequencetext = "GTCCCGGGAAACCGAGAC (((.(((....))).)))"
valueobserved = "-25.8 kcal/mol"

[[record]]
sequencetext = "GCCGAACGAAAGTTGGC (((.(((....))))))"
valueobserved = "-32.3 kcal/mol"

[[record]]
sequencetext = "GTTGGGGGAAACCCCGAC ((.((((....)))).))"
valueobserved = "-24.2 kcal/mol"

[[record]]
sequencetext = "ATTACGAAAGTAAT (((((....)))))"
valueobserved = "-17.5 kcal/mol"

[[record]]
sequencetext = "GAGAACCCGAAAGGGCTC (((..(((....))))))"
valueobserved = "-13.9 kcal/mol"

[[record]]
sequencetext = "GCGACTCATCGC ((((....))))"
valueobserved = "-24.5 kcal/mol"

[[record]]
sequencetext = "GGGGTTGGAAACAACTCC ((.((((....)))).))"
valueobserved = "-37.5 kcal/mol"

[[record]]
sequencetext = "GGATTCGGAAACGAATCC (((((((....)))))))"
valueobserved = "-35.8 kcal/mol"

[[record]]
sequencetext = "GCGTTCGAAAGAACCCGC ((((((....)))..)))"
valueobserved = "-14.2 kcal/mol"

[[record]]
sequencetext = "GCTCTGCGAAAGCGCAGC (((..((....))..)))"
valueobserved = "-11.4 kcal/mol"

[[record]]
sequencetext = "GCTAGGCGAAAGCATGGC ((.(.((....)).).))"
valueobserved = "-20.7 kcal/mol"

[[record]]
sequencetext = "GCTTTGCGAAAGCTATGC ((.(.((....)).).))"
valueobserved = "-12.6 kcal/mol"

[[record]]
sequencetext = "GACATTGGAAACAATGCC (.(((((....))))).)"
valueobserved = "-21.5 kcal/mol"

[[record]]
sequencetext = "GTTGTACGAAAGTAGAAC (((.(((....))).)))"
valueobserved = "-30.1 kcal/mol"

[[record]]
sequencetext = "GATCTAACAGTAGATC ((((((....))))))"
valueobserved = "-15.6 kcal/mol"

[[record]]
sequencetext = "GCCGTCGAAAGACTGGC ((((((....))).)))"
valueobserved = "-33.4 kcal/mol"

[[record]]
sequencetext = "GTCTGGGGAAACCTAGGC (.((.((....)).)).)"
valueobserved = "-19.8 kcal/mol"

[[record]]
sequencetext = "GCCAAGCGAAAGCTCTGC ((..(((....)))..))"
valueobserved = "-11.4 kcal/mol"

[[record]]
sequencetext = "GTGTGGGGAAACCCACAC (((((((....)))))))"
valueobserved = "-32.3 kcal/mol"

[[record]]
sequencetext = "GGTAGCACGAAAGTGACC (((..(((....))))))"
valueobserved = "-13.9 kcal/mol"

[[record]]
sequencetext = "GGGCGCGGAAACACGCCC (((((.(....).)))))"
valueobserved = "-34 kcal/mol"

[[record]]
sequencetext = "GGTCTCGAAAGAGCGACC ((((((....)))..)))"
valueobserved = "-18.1 kcal/mol"

[[record]]
sequencetext = "GGGCGAGGAAACTCACCC (((.(((....))).)))"
valueobserved = "-41 kcal/mol"

[[record]]
sequencetext = "GTTGGCGAAAGCCGGAAC ((((((....)))..)))"
valueobserved = "-7.97 kcal/mol"

[[record]]
sequencetext = "GCAGGCGAAAGCCCTTGC ((((((....)))..)))"
valueobserved = "-11.9 kcal/mol"

[[record]]
sequencetext = "GATCCTAATCAGGATC ((((((....))))))"
valueobserved = "-38.6 kcal/mol"

[[record]]
sequencetext = "GCTAGGCGAAAGCGTGGC ((.(.((....)).).))"
valueobserved = "-19.5 kcal/mol"

[[record]]
sequencetext = "GGGAGAGGAAACTCTTCC ((.((((....)))).))"
valueobserved = "-30.7 kcal/mol"

[[record]]
sequencetext = "GCTTAGCGAAAGCTTGGC ((..(((....)))..))"
valueobserved = "-18.3 kcal/mol"

[[record]]
sequencetext = "CGCCCGGAAACGGGTGCG ((((((....)))..)))"
valueobserved = "-10.7 kcal/mol"

[[record]]
sequencetext = "GCACTTCGAAAGAATGC (((.(((....))))))"
valueobserved = "-31.2 kcal/mol"

[[record]]
sequencetext = "GGATCGGAAACGATCC ((((((....))))))"
valueobserved = "-28.6 kcal/mol"

[[record]]
sequencetext = "GACCACCGAAAGGTAGTC (((.(((....))).)))"
valueobserved = "-31.6 kcal/mol"

[[record]]
sequencetext = "GACACGCGAAAGCGAGTC (((.(((....))).)))"
valueobserved = "-24.3 kcal/mol"

[[record]]
sequencetext = "GTGGACGAAAGTCCCCAC ((((((....)))..)))"
valueobserved = "-8.05 kcal/mol"

[[record]]
sequencetext = "GCGTTCGAAAGAAGTCGC ((((((....)))..)))"
valueobserved = "-26.4 kcal/mol"

[[record]]
sequencetext = "GCTCTCGGAAACGGGAGC ((((.((....)).))))"
valueobserved = "-41.3 kcal/mol"

[[record]]
sequencetext = "GATCTGGTTACAGATC ((((((....))))))"
valueobserved = "-40.1 kcal/mol"


Source: the array DNA melting data of Ke et al. (doi:10.1101/2024.01.08.574731)
